This collection of values is drawn from patent US11549123B2.

- Target desc: Zea mays EPSPS, native, SEQ ID NO:2 (Zea mays, UniProt O24566)
- Sequence (O24566 with tags, fused parts or gaps): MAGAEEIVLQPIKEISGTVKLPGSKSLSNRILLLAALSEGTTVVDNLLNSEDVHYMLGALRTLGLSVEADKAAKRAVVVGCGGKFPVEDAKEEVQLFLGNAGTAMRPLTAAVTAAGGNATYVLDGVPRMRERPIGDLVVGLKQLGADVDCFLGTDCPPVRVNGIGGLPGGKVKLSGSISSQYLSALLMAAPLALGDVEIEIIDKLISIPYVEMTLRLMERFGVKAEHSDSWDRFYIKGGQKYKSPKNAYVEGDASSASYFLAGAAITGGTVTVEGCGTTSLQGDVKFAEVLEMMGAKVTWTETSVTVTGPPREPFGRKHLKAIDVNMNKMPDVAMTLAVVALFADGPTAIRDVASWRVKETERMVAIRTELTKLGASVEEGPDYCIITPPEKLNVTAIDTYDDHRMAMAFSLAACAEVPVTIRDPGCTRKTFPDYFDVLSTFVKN
Property measured: Ki
State the value with its unit after it.

Enquiry: Look up Ki for this compound: O=C(O)CNCP(=O)(O)O [glyphosate, N-phosphonomethylglycine]
Return: 0.13 µM

---

- Target desc: Zea mays EPSPS variant S-N at positions 103-107 (Zea mays, UniProt O24566, P106N/T102S)
- Experimental details: EPSPS substrate saturation kinetics, maize variant 103S 107N
Property measured: Ki
Quick note: unit goes after the number.

Enquiry: Fill blank: measured Ki of the compound O=C(O)CNCP(=O)(O)O [glyphosate, N-phosphonomethylglycine] is ____.
Return: 244 µM

---

- Target desc: Zea mays EPSPS variant Zm-H6 (868-H6) with A69V (H6-A69V) (Zea mays, UniProt O24566, A1R/A3W/A415G/A68V/A71Q/D401G/E301S/E390G/G101A/I207L/K83R/L97C/T278A/T360S/T440Q/V437R)
- Experimental details: Substrate saturation kinetic analysis with glyphosate, H6-A69V
Property measured: pKi
One number for each entry, as −log10 of the molar value.

Enquiry: Given the compound O=C(O)CNCP(=O)(O)O [glyphosate, N-phosphonomethylglycine] , what is its reported pKi?
Return: 3.49

---

- Target desc: Zea mays EPSPS variant L-T at positions 103-107 (Zea mays, UniProt O24566, P106T/T102L)
- Experimental details: EPSPS substrate saturation kinetics, maize variant 103L 107T
Property measured: Ki (µM)
Numbers only, in µM.

Enquiry: Consider the molecule shown here: O=C(O)CNCP(=O)(O)O [glyphosate, N-phosphonomethylglycine] What is its recorded Ki?
Return: 289

---

- Target desc: Zea mays EPSPS variant G102A (Zea mays, UniProt O24566, G101A)
- Sequence (O24566 with tags, fused parts or gaps G101A): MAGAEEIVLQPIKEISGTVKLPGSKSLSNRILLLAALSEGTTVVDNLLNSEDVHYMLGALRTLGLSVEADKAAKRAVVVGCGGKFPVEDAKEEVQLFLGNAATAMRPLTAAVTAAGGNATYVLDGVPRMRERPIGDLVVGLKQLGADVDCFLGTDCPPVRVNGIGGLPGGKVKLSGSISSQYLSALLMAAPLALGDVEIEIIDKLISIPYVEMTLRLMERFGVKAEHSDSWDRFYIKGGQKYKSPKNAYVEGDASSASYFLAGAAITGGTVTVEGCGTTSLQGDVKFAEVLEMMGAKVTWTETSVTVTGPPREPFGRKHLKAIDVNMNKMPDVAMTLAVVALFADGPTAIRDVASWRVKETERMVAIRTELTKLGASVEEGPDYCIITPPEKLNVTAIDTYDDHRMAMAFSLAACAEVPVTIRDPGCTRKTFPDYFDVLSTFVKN
- Experimental details: EPSPS substrate saturation kinetics, G102A
- Measurement conditions: KI (glyphosate), competitive with PEP
Property measured: Ki (mM)
Answers are plain numbers, in mM.

Enquiry: Item O=C(O)CNCP(=O)(O)O [glyphosate, N-phosphonomethylglycine] has what recorded Ki?
Return: 2.29

---

- Target desc: Sorghum halepense EPSPS with 868-H6 mutations, SEQ ID NO:12 (Sorghum halepense, UniProt H6T5X2, A1R/A3W/A415G/D401G/E301S/E390G/G101A/I207L/K83R/L97C/T278A/T360S/T440Q/V437R/V71Q)
- Sequence (H6T5X2 entry or part of it with the stated changes): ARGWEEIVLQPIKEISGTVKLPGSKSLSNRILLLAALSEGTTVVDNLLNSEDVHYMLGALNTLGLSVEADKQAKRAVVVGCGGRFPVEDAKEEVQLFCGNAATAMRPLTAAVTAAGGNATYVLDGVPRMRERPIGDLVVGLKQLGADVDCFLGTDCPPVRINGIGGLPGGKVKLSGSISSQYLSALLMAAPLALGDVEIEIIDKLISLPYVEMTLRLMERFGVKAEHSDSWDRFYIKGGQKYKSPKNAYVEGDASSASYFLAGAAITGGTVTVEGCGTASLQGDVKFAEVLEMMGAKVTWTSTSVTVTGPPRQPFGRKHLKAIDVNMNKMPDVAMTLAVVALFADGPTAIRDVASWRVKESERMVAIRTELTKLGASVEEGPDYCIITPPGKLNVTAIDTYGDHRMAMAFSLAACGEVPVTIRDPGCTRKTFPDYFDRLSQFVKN
- Experimental details: EPSPS substrate saturation kinetics, sorghum H6
- Procedure: EPSPS activity was determined by quantifying the phosphate generated from the EPSPS reaction. […] The absorbance change that occurs was monitored at 360 nm, where the extinction is 11,200 M^−1 cm^−1, with a Spectramax plate reader (Molecular Devices). […] Reactions were monitored with a Spectramax plate reader. […] The parameter kcat/KM×KI is used to quantify both catalytic efficiency and insensitivity and thus the overall fitness of the enzyme. […]
Property measured: Ki (µM)
One number for each entry, in µM.

Enquiry: Consider the compound shown here: O=C(O)CNCP(=O)(O)O [glyphosate, N-phosphonomethylglycine] What is its recorded Ki?
Return: 783

---

- Target desc: Bacterial EPSPS (CP4) (Agrobacterium sp., UniProt Q9R4E4)
Property measured: pKi
Answers are plain numbers, as −log10 of the molar value.

Enquiry: Which pKi reading was recorded for the compound O=C(O)CNCP(=O)(O)O [glyphosate, N-phosphonomethylglycine] ?
Return: 2.85

---

- Target desc: Zea mays EPSPS variant Zm-T103I (Zea mays, UniProt O24566, T102I)
- Construct: native maize plus T103I; E. coli BL21(DE3), Ni-NTA purified
- Sequence (O24566 with tags, fused parts or gaps T102I): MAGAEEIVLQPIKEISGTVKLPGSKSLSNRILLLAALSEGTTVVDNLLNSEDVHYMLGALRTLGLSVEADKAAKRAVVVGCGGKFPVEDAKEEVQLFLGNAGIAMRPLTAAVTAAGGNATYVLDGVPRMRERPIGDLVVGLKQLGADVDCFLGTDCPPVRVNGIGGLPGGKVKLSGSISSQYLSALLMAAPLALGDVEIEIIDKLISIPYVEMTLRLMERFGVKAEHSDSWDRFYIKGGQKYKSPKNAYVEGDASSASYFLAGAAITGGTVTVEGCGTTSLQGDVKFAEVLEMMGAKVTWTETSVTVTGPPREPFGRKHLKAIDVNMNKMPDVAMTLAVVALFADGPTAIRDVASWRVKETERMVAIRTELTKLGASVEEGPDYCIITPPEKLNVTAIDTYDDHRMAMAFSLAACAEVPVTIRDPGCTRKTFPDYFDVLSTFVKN
- Experimental details: Substrate saturation kinetic analysis with glyphosate, Zm-T103I
Property measured: pKi
One number for each entry, as −log10 of the molar value.

Enquiry: // pKi lookup, key: O=C(O)CNCP(=O)(O)O [glyphosate, N-phosphonomethylglycine]
Return: 4.28

---

- Target desc: Zea mays EPSPS variant Zm-H6 (868-H6) with H54E (H6-H54E) (Zea mays, UniProt O24566, A1R/A3W/A415G/A71Q/D401G/E301S/E390G/G101A/H53E/I207L/K83R/L97C/T278A/T360S/T440Q/V437R)
- Construct: 868-H6 plus H54E; E. coli BL21(DE3), Ni-NTA purified
- Experimental details: Substrate saturation kinetic analysis with glyphosate, H6-H54E
Property measured: pKi
Numbers only, as −log10 of the molar value.

Enquiry: For O=C(O)CNCP(=O)(O)O [glyphosate, N-phosphonomethylglycine] , what is its reported pKi?
Return: 3.31

---

- Target desc: Sorghum halepense EPSPS, native, SEQ ID NO:8 (Sorghum halepense)
- Sequence (H6T5X2 entry or part of it): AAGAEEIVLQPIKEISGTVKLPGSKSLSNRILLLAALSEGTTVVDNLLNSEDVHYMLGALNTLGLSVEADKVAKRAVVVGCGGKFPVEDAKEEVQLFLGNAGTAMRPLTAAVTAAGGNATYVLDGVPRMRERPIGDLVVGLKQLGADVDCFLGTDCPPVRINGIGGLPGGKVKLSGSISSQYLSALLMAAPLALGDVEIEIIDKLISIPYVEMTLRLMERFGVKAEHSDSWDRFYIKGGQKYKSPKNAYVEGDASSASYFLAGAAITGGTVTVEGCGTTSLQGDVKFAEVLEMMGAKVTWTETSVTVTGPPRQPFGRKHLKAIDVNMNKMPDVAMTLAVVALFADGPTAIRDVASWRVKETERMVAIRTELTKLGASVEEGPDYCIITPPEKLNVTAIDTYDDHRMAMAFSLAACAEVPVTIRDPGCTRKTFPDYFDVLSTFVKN
Property measured: pKi
Answers are plain numbers, as −log10 of the molar value.

Enquiry: Would you kindly share the measured pKi for O=C(O)CNCP(=O)(O)O [glyphosate, N-phosphonomethylglycine] ?
Return: 6.70

---

- Target desc: Zea mays EPSPS variant Zm-P107S (Zea mays, UniProt O24566, P106S)
- Construct: native maize plus P107S; E. coli BL21(DE3), Ni-NTA purified
- Sequence (O24566 with tags, fused parts or gaps P106S): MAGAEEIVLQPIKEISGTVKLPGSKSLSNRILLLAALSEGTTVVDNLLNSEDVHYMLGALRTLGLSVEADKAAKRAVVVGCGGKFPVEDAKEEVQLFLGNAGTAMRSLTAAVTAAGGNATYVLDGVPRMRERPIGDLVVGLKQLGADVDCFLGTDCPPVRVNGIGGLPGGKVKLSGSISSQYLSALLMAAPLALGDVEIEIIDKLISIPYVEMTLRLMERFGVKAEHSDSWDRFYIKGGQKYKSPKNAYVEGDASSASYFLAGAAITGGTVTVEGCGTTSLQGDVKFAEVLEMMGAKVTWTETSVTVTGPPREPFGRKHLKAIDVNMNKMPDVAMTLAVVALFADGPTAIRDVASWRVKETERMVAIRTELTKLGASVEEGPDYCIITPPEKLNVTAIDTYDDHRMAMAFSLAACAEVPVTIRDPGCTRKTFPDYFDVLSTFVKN
- Experimental details: Substrate saturation kinetic analysis with glyphosate, Zm-P107S
Property measured: Ki (nM)
Numbers only, in nM.

Enquiry: Form entry - test system: Zea mays EPSPS variant Zm-P107S (Zea mays, UniProt O24566, P106S); read-out: Ki; molecule: O=C(O)CNCP(=O)(O)O [glyphosate, N-phosphonomethylglycine]
Return: 420
